- tested system: S. aureus DNA gyrase (Staphylococcus aureus, UniProt P0A0K8+P20831)
- Sequence (P20831 whole entry): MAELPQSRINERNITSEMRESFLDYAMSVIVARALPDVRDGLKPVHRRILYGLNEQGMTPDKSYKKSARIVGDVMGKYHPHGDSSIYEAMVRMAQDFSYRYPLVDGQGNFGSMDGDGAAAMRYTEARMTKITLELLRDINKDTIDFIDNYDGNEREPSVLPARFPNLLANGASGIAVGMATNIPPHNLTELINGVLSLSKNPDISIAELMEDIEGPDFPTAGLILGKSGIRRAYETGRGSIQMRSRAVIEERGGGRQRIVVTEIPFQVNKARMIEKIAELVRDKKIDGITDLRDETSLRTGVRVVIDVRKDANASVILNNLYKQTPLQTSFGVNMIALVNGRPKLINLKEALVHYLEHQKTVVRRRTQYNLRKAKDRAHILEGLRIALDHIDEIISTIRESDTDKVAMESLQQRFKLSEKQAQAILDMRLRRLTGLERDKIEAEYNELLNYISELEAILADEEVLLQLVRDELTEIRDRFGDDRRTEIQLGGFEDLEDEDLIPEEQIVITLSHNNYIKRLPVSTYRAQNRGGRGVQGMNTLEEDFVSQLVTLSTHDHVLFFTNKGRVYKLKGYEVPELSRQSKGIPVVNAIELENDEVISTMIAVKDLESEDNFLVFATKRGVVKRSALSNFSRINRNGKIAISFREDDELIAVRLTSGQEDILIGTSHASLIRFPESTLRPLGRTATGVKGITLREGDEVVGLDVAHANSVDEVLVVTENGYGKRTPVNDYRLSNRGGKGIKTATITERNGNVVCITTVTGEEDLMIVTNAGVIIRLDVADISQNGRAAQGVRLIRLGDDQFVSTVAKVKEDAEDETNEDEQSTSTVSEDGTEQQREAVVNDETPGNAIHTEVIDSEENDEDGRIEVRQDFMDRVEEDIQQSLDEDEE
- Sequence (P0A0K8 2-644): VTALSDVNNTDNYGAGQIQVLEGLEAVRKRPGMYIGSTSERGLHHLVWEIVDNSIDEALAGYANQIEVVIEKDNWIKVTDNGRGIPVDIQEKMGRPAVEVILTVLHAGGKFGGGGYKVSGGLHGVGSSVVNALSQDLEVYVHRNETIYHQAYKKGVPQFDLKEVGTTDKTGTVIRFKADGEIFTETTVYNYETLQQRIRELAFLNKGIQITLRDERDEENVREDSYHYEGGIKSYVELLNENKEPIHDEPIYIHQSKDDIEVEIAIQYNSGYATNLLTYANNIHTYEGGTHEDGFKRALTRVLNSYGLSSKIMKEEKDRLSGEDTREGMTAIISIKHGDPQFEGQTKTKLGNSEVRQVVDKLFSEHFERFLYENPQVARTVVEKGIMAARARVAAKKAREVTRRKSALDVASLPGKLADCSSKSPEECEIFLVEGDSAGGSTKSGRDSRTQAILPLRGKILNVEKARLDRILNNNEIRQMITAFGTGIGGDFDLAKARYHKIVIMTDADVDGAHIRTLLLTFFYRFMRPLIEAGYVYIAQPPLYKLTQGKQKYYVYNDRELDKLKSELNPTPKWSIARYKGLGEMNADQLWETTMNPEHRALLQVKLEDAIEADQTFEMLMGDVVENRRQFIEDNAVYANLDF
- protocol: DNA gyrase supercoiling inhibition assay
- Type: biochemical
- measurement conditions: read-out: IC50(μM) (mean ± SEM) / S. aureusDNA gyrase supercoiling
Measured IC50 by item
Expressed in µM, but write only the number.

compound: CCOC(=O)c1c(-n2cnnn2)sc2c1SC1N(c3ccccc3)C(=O)c3ccccc3N21 (centres unmarked)
experimental value: 7.13

# evaluate next
Entry CS(=O)(=O)N1SCC(=O)c2c1sc1c2SC2N(c3ccccc3)C(=O)c3ccccc3N12 (centres unmarked) ; IC50 = 11.7
